Target: T1, AtPEX5C D505H-D507T-N601A (Arabidopsis thaliana, UniProt Q9FMA3 340-728, D505H | D507T | N601A)
T1 construct: Made by site-directed mutagenesis of His6-AtPEX5 (340-728) in pET-28b; source: E. coli BL21-Gold (DE3), purified (Co-NTA)
T1 sequence (looked up): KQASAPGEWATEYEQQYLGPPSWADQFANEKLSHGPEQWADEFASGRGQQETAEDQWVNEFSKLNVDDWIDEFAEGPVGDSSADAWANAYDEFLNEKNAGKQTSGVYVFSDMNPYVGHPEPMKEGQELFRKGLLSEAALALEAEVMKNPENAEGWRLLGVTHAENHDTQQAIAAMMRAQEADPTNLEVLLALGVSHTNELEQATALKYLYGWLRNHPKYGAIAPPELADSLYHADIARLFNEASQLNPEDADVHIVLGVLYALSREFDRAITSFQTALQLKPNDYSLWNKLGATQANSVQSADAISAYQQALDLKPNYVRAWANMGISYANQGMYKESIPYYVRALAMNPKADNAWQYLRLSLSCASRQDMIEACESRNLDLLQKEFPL
Assay: fluorescence polarisation; fluorescence anisotropy; AtPEX5C or variant serially diluted (from a 40 µM solution) against 100 nM lissamine-labelled peptide tracer; 20 mM HEPES, 150 mM NaCl, pH 7.5; gelatine-blocked 384-well plates; 25 °C, 20 min; fitted to a 1:1 binding model
Conditions: both partners purified
Where no end group is shown, it is not given here.
# Kd annotations
measure.name: Kd (nM)

binder: {lissamine rhodamine B sulfonyl}-YQSKL (model PTS1 pentapeptide; also called lissamine-labelled YQSKL; model PTS1 peptide; source: synthetic peptide (Fmoc solid-phase synthesis, reverse phase HPLC)) [lissamine-YQSKL]
measure.name: Kd
endpoint.result: 97
--
binder: {lissamine rhodamine B sulfonyl}-YQSYY (pentapeptide found in the YQSXX library screen; also called lissamine-labelled YQSYY; source: synthetic peptide (Fmoc solid-phase synthesis, reverse phase HPLC)) [lissamine-YQSYY]
measure.name: Kd
endpoint.result: 110
